Data origin: paper PMC11931385

test-system: T1, Rb^P I703F (human, UniProt P06400 380-788, I703F)
T1 construct: also called variant 64
T1 sequence (looked up): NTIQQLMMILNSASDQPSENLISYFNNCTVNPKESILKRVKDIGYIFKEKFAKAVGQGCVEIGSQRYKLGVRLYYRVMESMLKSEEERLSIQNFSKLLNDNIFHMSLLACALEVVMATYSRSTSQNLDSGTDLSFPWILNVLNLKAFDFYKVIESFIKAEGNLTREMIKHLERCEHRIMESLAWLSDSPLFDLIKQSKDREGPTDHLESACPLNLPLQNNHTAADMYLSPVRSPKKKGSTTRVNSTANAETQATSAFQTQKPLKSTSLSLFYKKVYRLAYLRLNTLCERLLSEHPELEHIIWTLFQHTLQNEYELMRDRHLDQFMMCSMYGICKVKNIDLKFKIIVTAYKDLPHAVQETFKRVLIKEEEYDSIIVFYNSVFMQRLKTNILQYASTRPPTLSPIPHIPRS
assay-comment: fluorescence polarisation; 25 °C after warming to 37 °C (7 min ramp, 2 min at 37 °C), 1 min on ice and 3 min at 25 °C; unlabeled Rb^P against 1.5 nM TMR-E2F1^TD or 7.5 nM TMR-E7^LxCxE; 25 mM Tris pH 8.0, 200 mM NaCl, 1 mM DTT, 0.1% Tween-20; apparent Kd
run-parameters: both partners purified
No end group written: not given here. TMR = tetramethyl rhodamine dye
property-label: Kd

{"binder": "DLYCYEQLN (also: TMR label, position not given here, source: synthetic peptide, bought: GenScript) [TMR-E7^LxCxE, LxCxE peptide of the E7 oncoprotein from HPV]", "observed-measurement": "53 nM"}
{"binder": "{TMR}-GEGIRDLFDCDFGDLTPLD (also called E2F^TD; source: synthetic peptide, bought: GenScript) [TMR-E2F1^TD, peptide of the E2F1 transactivation domain]", "observed-measurement": "94 nM"}
